Procedure text: Biochemical index of blood and liver tissue in mice fed high fat diet containing sesquiterpene compound
Assay type: in vivo, mouse
Condition summary: HFD with compound in diet, 8 weeks
Assay endpoint: Liver Triglyceride
Returns: string containing the numeric result and its unit.

Some compounds with known Liver Triglyceride results, for comparison:
>  <Compound>
CC(=O)O[C@]1(C)CC[C@@]23C[C@@H]1C(C)(C)[C@@H]2CC[C@H]3C [Cedryl acetate, cedryl acetate]

>  <Liver Triglyceride>
23.8 ± 2.33 µmol/g

$$$$
>  <Compound>
CC1=CC[C@@]23C[C@@H]1C(C)(C)C2CC[C@H]3C (stereo partly drawn) [(−)-α-cedrene]

>  <Liver Triglyceride>
16.1 ± 0.60 µmol/g

$$$$
>  <Compound>
C=C1CC[C@@]23C[C@@H]1C(C)(C)C2CC[C@H]3C (stereo partly drawn) [(+)-β-cedrene]

>  <Liver Triglyceride>
16.6 ± 1.28 µmol/g

$$$$

In: Which value of Liver Triglyceride has been reported for CC1=CCC23CC1C(C)(CO)C2CCC3C (stereo not shown) [cedrenol, Cedrenol] in the records?
Out: 25.0 ± 1.81 µmol/g

In: Which value of Liver Triglyceride has been reported for CO[C@]1(C)CC[C@@]23C[C@@H]1C(C)(C)[C@@H]2CC[C@H]3C [methyl cedryl ether, Methyl cedryl ether] in the records?
Out: 24.4 ± 1.37 µmol/g

In: Which value of Liver Triglyceride has been reported for C[C@@H]1CC[C@H]2C(C)(C)[C@H]3C[C@@]12CC1OC13C (stereo partly shown) [cedrene epoxide, Cedrene epoxide] in the records?
Out: 27.8 ± 2.41 µmol/g

In: Which value of Liver Triglyceride has been reported for C[C@@H]1CC[C@H]2C(C)(C)[C@H]3C[C@@]12CC[C@@]3(C)O [(+)-cedrol] in the records?
Out: 49.1 ± 4.10 µmol/g
